Tested on: NCI-H522 lung
Assay: NCI tumour cell line growth inhibition, 48 h
observable: TGI (µM)
Numeric answer only, unit µM assumed.

> print(dat)
                                   compound  target.entity  observable  result.value
1  CCCCCCCCCCCCCCCC(=O)OCC1OC(OC)C2NP(=O)(N(CCCl)CCCl)OC1C2O (stereo not given)  NCI-H522 lung         TGI          3.42

// below: TGI requested for another compound
Reported TGI for "O=c1c(NO)c([N+](=O)[O-])cnn1-c1ccccc1" : what is it? 4.86

====

System: SK-MEL-2 melanoma
Experiment: NCI tumour cell line growth inhibition, 48 h
observable: TGI (µM)
// return numeric value only (unit: µM, not printed)

> print(dat)
                                   molecule  result.value
1  O=C(NC(Nc1ccc(F)cc1)(C(F)(F)F)C(F)(F)F)C(C(F)(F)F)C(F)(F)F          25.2
2  CC(C)(C)OC(=O)C1=C2C=C(O)C=CC2(C)N(Cc2ccccc2)C1=N (stereo not given)          33.1
3  C=CC/C(=C\COP(=O)(OCc1ccc([N+](=O)[O-])o1)N(C)CCCCCl)CC/C=C(\C)CCC=C(C)C (stereo not given)          26.4
4  CC1=CC(C)C(C)N(CCNS(=O)(=O)c2ccc(C)cc2)c2ccccc21 (stereo not given)            18

Next up:
Which TGI is listed for "NCCOc1ccccc1/C=C1\c2ccccc2-c2ccc([N+](=O)[O-])cc21" ? 3.34

====

Test system: NCI-H226 lung
Assay: NCI tumour cell line growth inhibition, 48 h; in the data active means GI50 below about 0.43 µM; inactive means the rest
Your answer must be one of the following: 1 = active, 0 = inactive

As a guide, the following entries are already answered.
> print(dat)
                                   compound  target.entity  classification
1  C=C(CC(=O)O)C(=O)O (tested in a mixture with another compound)  NCI-H226 lung               0
2  CCN(CC)CCN(Cc1ccc(F)cc1)c1ccc(CO)c(Cl)c1  NCI-H226 lung               1

# lookup: test call for "N=C(N)c1ccc(NCCOCCNc2ccc(C(=N)N)cc2)cc1" 0

Which outcome was assigned to "O=S1(=O)CS(=O)(=O)OCCO1" in this test? 0

State the result this test recorded for CC(=O)C1=C(C)N(C)C2(O)C=CC(=O)C3=C(O)c4ccccc4C(=O)C312 (configuration not stated) . 0

Recorded call for "c1cncc(C2Nc3cccc4cccc(c34)N2)c1" ? 0

Per the records of this test, what outcome belongs to "CC(C)n1nc(-c2ccc3oc(N)nc3c2)c2c(N)ncnc21" ? 1

====

Each record here notes measured TGI.
System: SK-MEL-2 melanoma
Assay: NCI tumour cell line growth inhibition, 48 h

Examples with their reported TGI follow.
> print(dat)
                                   molecule  observable  result.value
1        O=[N+]([O-])c1cc(Cl)ccc1OCc1ccccc1         TGI      > 100 µM
2  Cc1nc2ccc(NC3OC(CO)C(O)C(O)C3O)cc2c(=O)n1-c1ccccc1 (stereo not given)         TGI      > 100 µM
3  O/N=C(\CC(O)(C(F)(F)F)C(F)(F)F)c1cccc(Cl)c1         TGI       63.5 µM

Form field: reported TGI of COc1ccc(/C=c2/sc3n(c2=O)NC2(CCC(C)CC2)NN=3)cc1 (stereo not given) > 100 µM

Quick check: TGI of "C[CH2][Ge]([CH2]C)([CH2]C)[O]C(=O)CCC(=O)[O][Ge]([CH2]C)([CH2]C)[CH2]C" ? > 100 µM
